Test system: PD-OVCA #41
Experiment: MTS cell proliferation assay, PD-OVCA #41
Format: cell-based, human
Settings: PD-OVCA #41, benign mutBRCA1; MTS; 48 h; mean ± SD
ASSAY_ENDPOINT: IC50 (µM)
The figure you give is taken to be in µM; do not add the unit.

Lab note: measured IC50 of N.N.[Cl][Pt][Cl] [Cisplatin] was 4.38

---

Test system: MDA-MB-231
Assay: Sulforhodamine B antiproliferative assay, MDA-MB-231
Assay type: cell-based, human
Conditions: Homo sapiens, MDA-MB-231, 48 h
ASSAY_ENDPOINT: pIC50
The scale used: pIC50 is minus the common logarithm of the concentration in molar units.

Lab book: pIC50 of O=C(c1cc(Cc2n[nH]c(=O)c3ccccc23)ccc1F)N1CCN(C(=O)C2CC2)CC1 [Olaparib] noted as 4.29
